Exercise: state measured PAM type for each of the compounds provided.
Biological target: hα7-wt nAChR (Homo sapiens)
Test: Patch-clamp current recording (whole-cell voltage clamp), potentiation of choline current and PAM type
Type: cell-based
Design: key: Type 0 compounds minimally enhance the effect size of the current elicited by 1 mM choline.; Type 1 compounds enhance the effect size of the current elicited by 1 mM choline but minimally alter the kinetics of the receptor.; Type 2 compounds enhance the effect size of the current elicited by 1 mM choline while reducing the rate and/or the extent of desensitization.; Type 3 compounds enhance the effect size of the current elicited by 1 mM choline. When tested at higher concentrations up to 10 μM they completely inhibit desensitization, in particular a 1 mM choline application of 250 milliseconds.; Type 4 compounds allow for an initial desensitization of the receptor followed by a re-opening of the receptor during agonist application
Settings: hα7-wt nAChR-expressing GH4C1 cells, 1 mM choline
Give bare numbers.

# compound, PAM type
rows = [
    ("COc1cc(Nc2cc(CC(=O)NC3CC3)n(-c3ccnc(C)c3)n2)cc(C(F)(F)F)c1 [Compound 46]", 4),
    ("CCNC(=O)Cc1cc(Nc2ccc3c(c2)OC(F)(F)O3)nn1-c1ccnc(C)c1 [Compound 98]", 2),
    ("CCNC(=O)Cc1cc(Nc2ccc(F)c(F)c2)nn1-c1ccnc(C)c1 [Compound 28]", 2),
    ("Cc1cc(-n2nc(Nc3cccc(Cl)c3F)cc2CCC(=O)N(C)C)ccn1 [Compound 84]", 4),
]

Now consider a different compound.
# query: PAM type | item CC[C@H](O)Cc1cc(Nc2cccc(Cl)c2F)nn1-c1ccnc(C)c1 [Compound 58] | system: hα7-wt nAChR (Homo sapiens) 1

* * *

Target: hα7-wt nAChR (Homo sapiens, UniProt P36544)
Sequence (P36544 23-502): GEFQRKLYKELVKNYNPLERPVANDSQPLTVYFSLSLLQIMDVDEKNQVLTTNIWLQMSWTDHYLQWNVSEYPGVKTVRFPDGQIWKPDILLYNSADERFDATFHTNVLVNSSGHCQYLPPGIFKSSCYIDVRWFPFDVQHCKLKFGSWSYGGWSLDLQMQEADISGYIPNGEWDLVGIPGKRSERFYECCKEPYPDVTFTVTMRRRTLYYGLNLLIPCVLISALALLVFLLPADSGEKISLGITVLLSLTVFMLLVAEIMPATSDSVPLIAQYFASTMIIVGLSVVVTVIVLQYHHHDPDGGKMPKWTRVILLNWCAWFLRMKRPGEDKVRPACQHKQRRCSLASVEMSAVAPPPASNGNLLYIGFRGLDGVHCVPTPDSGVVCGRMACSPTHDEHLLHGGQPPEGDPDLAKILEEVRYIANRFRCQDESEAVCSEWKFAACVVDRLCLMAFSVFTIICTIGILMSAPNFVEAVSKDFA
Experiment: Ca2+ flux imaging (FDSS): potentiation of the choline response
Assay type: cell-based
Conditions: Ca2+ assay as described in D.1; potentiation of choline response, hα7-wt nAChR; read-out: Potency (pEC50) (converted)
API: label(entry) gives 1 if the entry's EC50 is strictly smaller than 1000 nM; on equality or larger values it gives -1.

Here are 2 compounds together with their reported answers.
# item_smiles, class_label
records = [
    ("Cc1cc(-n2nc(Nc3cccc(OC(F)(F)F)c3)cc2CC(=O)NC2CC2)cc(C)n1", 1),
    ("Cc1cc(-n2nc(Nc3ccc(F)c(F)c3)cc2C)ccn1", -1),
]

Confirm or reject: EC50 of CC[C@H](O)Cc1cc(Nc2ccc(F)c(F)c2F)nn1-c1ccnc(C)c1 lies strictly below 1000 nM -1

Also CC[C@H](O)Cc1cc(Nc2ccc(OC)c(C(F)(F)F)c2)nn1-c1ccnc(C)c1 ? -1

Also CC[C@H](O)Cc1cc(Nc2ccc(F)c(F)c2)nn1-c1ccnc(C)c1 ? -1

Also CC[C@@H](O)Cc1cc(Nc2cc(F)c(F)c(F)c2)nn1-c1ccnc(C)c1 ? 1

Also CC[C@@H](O)Cc1cc(Nc2ccc(F)c(F)c2F)nn1-c1ccnc(C)c1 ? 1

Also CC[C@@H](O)Cc1cc(Nc2cc(F)cc(Cl)c2)nn1-c1ccnc(C)c1 ? 1

* * *

API: label(entry) gives met if the entry's melting point is strictly smaller than 200 °C; on equality or larger values it gives not met.

Here are 5 compounds together with their reported answers.
# compound, class_label
measured = [
    ("Cc1cc(-n2nc(Nc3ccc(F)c(F)c3)cc2C)ccn1 [Compound 14]", "met"),
    ("Cc1cc(-n2nc(Nc3ccc4c(c3)OC(F)(F)O4)cc2CCCOCc2ccccc2)ccn1 [Compound 104]", "met"),
    ("CCNC(=O)Cc1cc(Nc2cc(OC)cc(C(F)(F)F)c2)nn1-c1ccnc(C)c1 [Compound 45]", "not met"),
    ("CC[C@@H](O)Cc1cc(Nc2cc(F)cc(Cl)c2)nn1-c1ccnc(C)c1 [Compound 60]", "met"),
    ("Cc1cc(-n2nc(Nc3cccc(OC(F)(F)F)c3)cc2CC(=O)NC(C)C)cc(C)n1 [Compound 116]", "not met"),
]

Confirm or reject: melting point of CC[C@@H](O)Cc1cc(Nc2ccc(F)c(F)c2F)nn1-c1ccnc(C)c1 [Compound 13] lies strictly below 200 °C met

Also Cc1cc(-n2nc(Nc3ccc4c(c3)OC(F)(F)O4)cc2CC(=O)NC2CC2)ccn1 [Compound 100] ? not met

Also CNC(=O)Cc1cc(Nc2cc(OC)cc(C(F)(F)F)c2)nn1-c1ccnc(C)c1 [Compound 43] ? not met

Also Cc1cc(-n2nc(Nc3cccc(OC(F)(F)F)c3)cc2CC(=O)NC2CC2)cc(C)n1 [Compound 118] ? not met

Also COCc1cc(Nc2ccc(F)c(F)c2)nn1-c1ccnc(C)c1 [Compound 22] ? met

Also COc1cc(Nc2cc(CCC(=O)N(C)C)n(-c3ccnc(C)c3)n2)cc(C(F)(F)F)c1 [Compound 9] ? met

Also CC[C@H](O)Cc1cc(Nc2ccc3c(c2)OC(F)(F)O3)nn1-c1ccnc(C)c1 [Compound 93] ? met

Also CC[C@@H](O)Cc1cc(Nc2cc(Cl)cc(OC)c2)nn1-c1ccnc(C)c1 [Compound 62] ? met

Also Cc1cc(-n2nc(Nc3ccc4c(c3)OC(F)(F)O4)cc2CC(=O)NC2CCC2)ccn1 [Compound 102] ? not met

Also Cc1cc(-n2nc(Nc3cccc(Cl)c3F)cc2CC(=O)NC2CCC2)ccn1 [Compound 82] ? not met

Also CCNC(=O)Cc1cc(Nc2ccc3c(c2)OC(F)(F)O3)nn1-c1ccnc(C)c1 [Compound 98] ? not met

Also Cc1cc(-n2nc(Nc3cccc(OC(F)(F)F)c3)cc2CC(=O)NC(C)C)ccn1 [Compound 115] ? not met

* * *

Target: hα7-wt nAChR (Homo sapiens, UniProt P36544)
Assay: Ca2+ flux imaging (FDSS): potentiation of the choline response
Type: cell-based
Settings: Ca2+ assay as described in D.1; potentiation of choline response, hα7-wt nAChR; read-out: Potency (pEC50) (converted)
readout_kind: EC50

// batch mode: one EC50 value per listed entry
1. Cc1cc(-n2nc(Nc3ccc(F)c(F)c3)cc2CCC(=O)N(C)C)ccn1
2. CNC(=O)Cc1cc(Nc2cccc(C(F)(F)F)c2)nn1-c1ccnc(C)c1
3. Cc1cc(-n2nc(Nc3ccc4c(c3)OC(F)(F)O4)cc2CC(=O)NC2CC2)ccn1
4. CNC(=O)Cc1cc(Nc2cccc(OC(F)(F)F)c2)nn1-c1cc(C)nc(C)c1

["0.977 µM", "1.86 µM", "1.26 µM", "1.29 µM"]

* * *

Target: hα7-wt nAChR (Homo sapiens, UniProt P36544)
Assay: Patch-clamp current recording (whole-cell voltage clamp), potentiation of choline current and PAM type
Type: cell-based
Design: key: Type 0 compounds minimally enhance the effect size of the current elicited by 1 mM choline.; Type 1 compounds enhance the effect size of the current elicited by 1 mM choline but minimally alter the kinetics of the receptor.; Type 2 compounds enhance the effect size of the current elicited by 1 mM choline while reducing the rate and/or the extent of desensitization.; Type 3 compounds enhance the effect size of the current elicited by 1 mM choline. When tested at higher concentrations up to 10 μM they completely inhibit desensitization, in particular a 1 mM choline application of 250 milliseconds.; Type 4 compounds allow for an initial desensitization of the receptor followed by a re-opening of the receptor during agonist application
Settings: hα7-wt nAChR-expressing GH4C1 cells, 1 mM choline
readout_kind: PAM type
One number for each entry.

# example entries with known answers
# item_smiles, PAM type
records = [
    ("CC[C@H](O)Cc1cc(Nc2cc(F)c(F)c(F)c2)nn1-c1ccnc(C)c1", 2),
    ("CCNC(=O)Cc1cc(Nc2cccc(Cl)c2F)nn1-c1cc(C)nc(C)c1", 2),
    ("Cc1cc(-n2nc(Nc3ccc4c(c3)OC(F)(F)O4)cc2CC(=O)NC2CC2)ccn1", 2),
    ("CCNC(=O)Cc1cc(Nc2cccc(OC(F)(F)F)c2)nn1-c1ccnc(C)c1", 3),
    ("COc1cc(Nc2cc(CC(=O)NC3CCC3)n(-c3ccnc(C)c3)n2)cc(C(F)(F)F)c1", 4),
    ("CNC(=O)Cc1cc(Nc2cccc(OC(F)(F)F)c2)nn1-c1cc(C)nc(C)c1", 2),
    ("CNC(=O)Cc1cc(Nc2cccc(OC(F)(F)F)c2)nn1-c1ccnc(C)c1", 2),
    ("CC[C@H](O)Cc1cc(Nc2cc(F)c(F)cc2F)nn1-c1ccnc(C)c1", 2),
]

// batch mode: one PAM type value per listed entry
1. COc1cc(Cl)cc(Nc2cc(CC(=O)NC3CCC3)n(-c3ccnc(C)c3)n2)c1
2. COc1cc(Cl)cc(Nc2cc(CCC(=O)N(C)C)n(-c3ccnc(C)c3)n2)c1
3. CCNC(=O)Cc1cc(Nc2cccc(Cl)c2F)nn1-c1ccnc(C)c1
4. CCNC(=O)Cc1cc(Nc2cccc(OC(F)(F)F)c2)nn1-c1cc(C)nc(C)c1
5. COCc1cc(Nc2ccc(F)c(F)c2)nn1-c1ccnc(C)c1
6. Cc1cc(-n2nc(Nc3cccc(OC(F)(F)F)c3)cc2CC(=O)NC2CC2)ccn1
7. CCNC(=O)Cc1cc(Nc2cc(OC)cc(C(F)(F)F)c2)nn1-c1ccnc(C)c1
8. CC[C@@H](O)Cc1cc(Nc2cccc(C(F)(F)F)c2)nn1-c1ccnc(C)c1

4
4
3
2
0
3
4
2

# query: PAM type | item COc1cc(Cl)cc(Nc2cc(CC(=O)NCC3CC3)n(-c3ccnc(C)c3)n2)c1 | system: hα7-wt nAChR (Homo sapiens, UniProt P36544) 0
